- testedSystem: T1, Hu HER3 (CD33-[Human HER3, residues 20-640]-TAG) (human, UniProt P21860 20-640)
- T1 construct: N-terminal CD33 leader is a secretion signal and is left out; also called hu HER3-Tag; HER3-Tag; not shown: C-terminal TAG (e.g. FLAG TAG)
- measurementProtocol: solution equilibrium titration (SET), IgG
measuredEndpoint: pKd
Answers are plain numbers, as −log10 of the molar value.

Ask: pKd for MOR10703 (antibody, human IgG1, kappa, V domains shown, tested as IgG) VH: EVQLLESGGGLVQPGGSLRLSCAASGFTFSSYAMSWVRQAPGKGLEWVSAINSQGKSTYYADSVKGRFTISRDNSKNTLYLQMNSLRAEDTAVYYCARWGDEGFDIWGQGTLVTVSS VL: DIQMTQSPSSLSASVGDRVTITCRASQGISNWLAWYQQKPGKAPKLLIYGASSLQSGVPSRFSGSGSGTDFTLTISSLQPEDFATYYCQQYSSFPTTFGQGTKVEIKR ?
Result: 10.59

These entries and their values trace back to patent US20130330324A1.
